These data points were gathered from the CATMoS acute toxicity set (Mansouri et al. 2021).

GHS category reference
# protocolNotes: GHS categories as the set defines them, by LD50: 1 up to 5, 2 up to 50, 3 up to 300, 4 up to 2000, 5 above 2000 mg/kg
# measurementConditions: rat; in vivo; po
# Description: […]The data set underlying the modeling effort for this project was initially compiled by NICEATM and U.S. EPA’s CCTE. Briefly, LD50 data were collected from rat acute oral systemic toxicity tests, including limit tests, ranges/confidence intervals, and discrete LD50 values. The full data set included 21,200 LD50 entries for 15,688 substances. […]
Reply with just the number.

Here are 5 compounds together with their reported answers.
COC(=O)C1=C(C)NC(C)=C(C(=O)O)C1c1cc([N+](=O)[O-])ccc1F (stereo not drawn): 5
O=C(O)c1cc(=O)c2c(OCC(O)COc3cccc4oc(C(=O)O)cc(=O)c34)cccc2o1: 5
CCN(CC)c1ccc(N=Nc2ncc([N+](=O)[O-])s2)cc1: 5
CCCNC(=O)c1cnc2ccc(C)cn2c1=O: 3
CC(C)(C)[C@H]1CC[C@H](O)CC1: 5

Prompt line: Look up GHS category of CN1C(=O)CCc2c(OCC(O)CN3CCC(Cc4ccccc4)CC3)cccc21 (stereo not drawn) and report it.
Response line: 4

Prompt line: # return recorded GHS category for entry CCCCc1nc(C=O)c(Cl)[nH]1
Response line: 5

* * *

# protocolNotes: GHS categories as the set defines them, by LD50: 1 up to 5, 2 up to 50, 3 up to 300, 4 up to 2000, 5 above 2000 mg/kg
# measurementConditions: rat; in vivo; po
observationType: GHS category
API doc: respond with a numeric literal and nothing else, no unit.

O=C(NC(=O)c1ccccc1Cl)Nc1ccc(OC(F)(F)F)cc1: 5
O=C(O)c1ccccc1C(=O)N1CCSC1: 5

Prompt line: Write down GHS category measured for item CC(C)C[C@H](NC(=O)CNC(=O)[C@H](Cc1ccc(O)cc1)NC(=O)[C@H](CO)NC(=O)[C@H](Cc1c[nH]c2ccccc12)NC(=O)[C@H](Cc1cnc[nH]1)NC(=O)[C@@H]1CCC(=O)N1)C(=O)N[C@@H](CCCN=C(N)N)C(=O)N1CCC[C@H]1C(=O)NCC(N)=O
Response line: 5

Prompt line: Please give the documented GHS category of CN1C2=CC(=O)C(=NNC(N)=O)C=C2CC1S(=O)(=O)O (stereo unspecified)
Response line: 5

Prompt line: Specify reported GHS category for the compound shown: O=CCC(=O)c1ccc(C2CCCCC2)cc1
Response line: 4

Prompt line: Quick one: give measured GHS category for O=C(O)c1[nH]n(-c2ccc(S(=O)(=O)O)cc2)c(=O)c1/N=N/c1ccc(S(=O)(=O)O)cc1
Response line: 5

Prompt line: Assign GHS category to the following record: OC(OCC(COC(O)C(Cl)(Cl)Cl)(COC(O)C(Cl)(Cl)Cl)COC(O)C(Cl)(Cl)Cl)C(Cl)(Cl)Cl (stereo unspecified)
Response line: 4

* * *

# protocolNotes: GHS categories as the set defines them, by LD50: 1 up to 5, 2 up to 50, 3 up to 300, 4 up to 2000, 5 above 2000 mg/kg
# measurementConditions: rat; in vivo; po
observationType: GHS category
Output: the number by itself.

Example cases with answers are listed next.
CCc1cccc(CC)c1NC(=O)c1sc(N)nc1C: 4
CCCc1c(Cc2ccc(-c3ccccc3-c3nn[nH]n3)cc2)c(N2CCCCC2)nc2ncnn12: 4
CCOC(=O)c1c(CSc2ccccc2)n(C)c2cc(Br)c(O)c(CN(C)C)c12: 5
CC(C)C1C=C2CCC3C(C)(CO)CCCC3(C)C2CC1 (stereo unspecified): 5
CC1CC(OC(=O)C(C)Oc2ccc(F)cc2)CC(C)(C)C1 (stereo unspecified): 5

Prompt line: For the compound FC(F)(F)c1cccc(C(F)(F)F)c1 , report GHS category.
Response line: 5
